// reported human MASP2 IC50 per item
# MEASURED_ON: recombinant human MASP2 (amino acids 297-686, C-terminal His Tag) (human, UniProt O00187 297-686)
# Sequence (O00187 other isoform, or with tags, fused parts or gaps limits assumed): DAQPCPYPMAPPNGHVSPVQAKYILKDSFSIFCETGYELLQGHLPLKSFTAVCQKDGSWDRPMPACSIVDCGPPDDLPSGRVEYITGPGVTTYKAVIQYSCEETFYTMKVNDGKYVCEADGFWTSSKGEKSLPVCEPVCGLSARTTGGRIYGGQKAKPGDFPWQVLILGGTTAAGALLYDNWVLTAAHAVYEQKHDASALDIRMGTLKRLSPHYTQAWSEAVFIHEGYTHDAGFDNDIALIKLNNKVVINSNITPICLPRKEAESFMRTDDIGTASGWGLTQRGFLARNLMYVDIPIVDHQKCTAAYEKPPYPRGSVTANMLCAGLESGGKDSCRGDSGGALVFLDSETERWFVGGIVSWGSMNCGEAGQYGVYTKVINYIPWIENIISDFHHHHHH
# EXPERIMENT_SUMMARY: cell-based or functional assay
Bridges are numbered along the chain shown (N, C = ends). [ ]: non-standard residue; d: D form. Oic = O=C(O)[C@@H]1C[C@@H]2CCCC[C@@H]2N1; tBuAla = CC(C)(C)C[C@H](N)C(=O)O; Pen = CC(C)(S)[C@H](N)C(=O)O; Dab = NCC[C@H](N)C(=O)O; Dap = NC[C@H](N)C(=O)O; Ahx = NCCCCCC(=O)O; Sar = CNCC(=O)O
Entry rule: numbers only, all in nM.

BINDER: AGGICSRSLP[Oic]I[Pen]IPD-NH2 (disulfide 5-13; lactam N-16; also: TFA salt) [Example 42: A**GGIC+SRSLP-(Oic)-I-(Pen)+-IPD++-NH2]
UNIT_STRING: nM
human MASP2 IC50: 200

BINDER: cyclo([Dap][Dap]ICSRSLP[Oic]I[Pen]IP) (disulfide 4-12; also: TFA salt) [Example 89: (Dap)**-(Dap)-IC+SRSLP-(Oic)-I-(Pen)+-IP**]
UNIT_STRING: nM
human MASP2 IC50: 91

BINDER: [Ahx][Sar]AICSRSLP[Oic]I[Pen]IPE-NH2 (disulfide 5-13; lactam N-16; also: TFA salt) [Example 77: (Ahx)**-((N-Me)G)-AIC+SRSLP-(Oic)-I-(Pen)+-IPE++-NH2]
UNIT_STRING: nM
human MASP2 IC50: 210

BINDER: cyclo([Dap][Dab]ICSRS[tBuAla]PPI[Pen]I) (disulfide 4-12; also: TFA salt) [Example 73: (Dap)**-(Dab)-IC+SRS-((tBu)A)-PPI-(Pen)+-I**]
UNIT_STRING: nM
human MASP2 IC50: 430

Input cyclo(AGGICSRSLPPICIP[dD]) (disulfide 5-13; also: TFA salt) [Example 17: A**GGIC+SRSLPPIC+IPd**] . Output human MASP2 IC50: 88
